System: human diffuse large B-cell lymphoma SU-DHL-6 cell
Assay: Cytotoxic action on cancer cells (WST-8, 96 hr)
Format: cell-based
Details: SU-DHL-6 cells, 96 hr culture
Experimental: The cytotoxic action of the compound of the present invention against human cancer cells was evaluated in vitro. […] After culturing, the viable cell number was measured using a cell number measurement WST-8 kit (Kishida Chemical Co., Ltd.). […] It was calculated from the straight line connecting the cell survival rate at two points enclosing the 50% cell survival rate and the compound concentration. […]
Assignment: determine reported pIC50 for the given molecules.
Give bare numbers, as −log10 of the molar value.

# annotated cases, reported pIC50 shown
Lab book: pIC50 of COC(=O)C[C@@H]1N=C(c2ccc(-c3ccc(OCC(=O)N[C@H](C(=O)N4C[C@H](O)C[C@H]4C(=O)N[C@@H](C)c4ccc(-c5scnc5C)cc4)C(C)(C)C)c(C#N)c3)cc2)c2c(sc(C)c2C)-n2c(C)nnc21 noted as 9.24

Lab book: pIC50 of COC(=O)C[C@@H]1N=C(c2ccc(-c3ccc(OCCOCC(=O)N[C@H](C(=O)N4C[C@H](O)C[C@H]4C(=O)N[C@@H](C)c4ccc(-c5scnc5C)cc4)C(C)(C)C)c(C#N)c3)cc2)c2c(sc(C)c2C)-n2c(C)nnc21 noted as 8.68

Lab book: pIC50 of COC(=O)C[C@@H]1N=C(c2ccc(-c3ccc(C(=O)N[C@H](C(=O)N4C[C@H](O)C[C@H]4C(=O)N[C@@H](C)c4ccc(-c5scnc5C)cc4)C(C)(C)C)c(Cl)c3)cc2)c2c(sc(C)c2C)-n2c(C)nnc21 noted as 9.41

Consider the additional molecule presented here.
Lab book: pIC50 of COC(=O)C[C@@H]1N=C(c2ccc(N3CC[C@@H](Oc4ccc5oc(C(=O)N[C@H](C(=O)N6C[C@H](O)C[C@H]6C(=O)N[C@@H](C)c6ccc(-c7scnc7C)cc6)C(C)(C)C)cc5c4)C3)cc2)c2c(sc(C)c2C)-n2c(C)nnc21 noted as 9.03

###

target: BRD4 protein (Homo sapiens (Human)); test: BRD4 protein degradation inducing action in cancer cells (immunofluorescence, Operetta); type: cell-based; conditions: LNCaP cells, 6 hr treatment, fluorescence intensity
measure: DC50 (pM)
Give bare numbers, in pM.

Lab book: DC50 of COC(=O)C[C@@H]1N=C(c2ccc(-c3ccc(C(=O)N[C@H](C(=O)N4C[C@H](O)C[C@H]4C(=O)NCc4ccc(-c5scnc5C)cc4)C(C)(C)C)c(Cl)c3)cc2)c2c(sc(C)c2C)-n2c(C)nnc21 noted as 170

Consider the additional compound presented here.
Lab book: DC50 of COC(=O)C[C@@H]1N=C(c2ccc(-c3ccc(OC(F)(F)C(=O)N[C@H](C(=O)N4C[C@H](O)C[C@H]4C(=O)N[C@@H](C)c4ccc(-c5scnc5C)cc4)C(C)(C)C)cc3)cc2)c2c(sc(C)c2C)-n2c(C)nnc21 noted as 97

###

Molecular target: BRD4 protein (Homo sapiens (Human), UniProt O60885)
Test: BRD4 protein degradation inducing action in cancer cells (immunofluorescence, Operetta)
Assay type: cell-based
Conditions: LNCaP cells, 6 hr treatment, fluorescence intensity
Experimental: The degradation inducing action of the compound of the present invention on BRD4 protein in cancer cells was evaluated in vitro using human prostate cancer LNCaP cells. […] After incubation for 1 hr, BRD4 protein amount was measured by Operetta (Perkin Elmer) as fluorescence intensity. • Anti-Rabbit IgG(H+L), F(ab′)2 Fragment (Alexa Fluor 488 Conjugate) (Cell Signaling Technology), fluorescence intensity was measured at excitation: 495 nm, emission: 519 nm. […]
measure: DC50 (nM)
Give bare numbers, in nM.

Lab book: DC50 of COC(=O)C[C@@H]1N=C(c2ccc(-c3ccc(C(=O)N[C@H](C(=O)N4C[C@H](O)C[C@H]4C(=O)NCc4ccc(-c5scnc5C)cc4)C(C)(C)C)cc3F)cc2)c2c(sc(C)c2C)-n2c(C)nnc21 noted as 0.44

Hi! Can you tell me DC50 for each of these molecules?
1. COC(=O)C[C@@H]1N=C(c2ccc(-c3cc(F)cc(C(=O)N[C@H](C(=O)N4C[C@H](O)C[C@H]4C(=O)N[C@@H](C)c4ccc(-c5scnc5C)cc4)C(C)(C)C)c3F)cc2)c2c(sc(C)c2C)-n2c(C)nnc21
2. COC(=O)C[C@@H]1N=C(c2ccc(-c3ccc(OCC(=O)N[C@H](C(=O)N4C[C@H](O)C[C@H]4C(=O)N[C@@H](C)c4ccc(-c5scnc5C)cc4)C(C)(C)C)cc3)cc2)c2c(sc(C)c2C)-n2c(C)nnc21
3. COC(=O)C[C@@H]1N=C(c2ccc(-c3ccc(OCC(=O)N[C@H](C(=O)N4C[C@H](O)C[C@H]4C(=O)N[C@@H](C)c4ccc(-c5scnc5C)cc4)C(C)(C)C)c(C#N)c3)cc2)c2c(sc(C)c2C)-n2c(C)nnc21

1. 0.5
2. 0.066
3. 0.15

###

Assignment: determine reported DC50 for the given compounds.
Biological target: BRD4 protein (Homo sapiens (Human), UniProt O60885)
Assay: BRD4 protein degradation inducing action in cancer cells (immunofluorescence, Operetta)
Format: cell-based
Conditions: LNCaP cells, 6 hr treatment, fluorescence intensity
Experimental: The degradation inducing action of the compound of the present invention on BRD4 protein in cancer cells was evaluated in vitro using human prostate cancer LNCaP cells. […] After incubation for 1 hr, BRD4 protein amount was measured by Operetta (Perkin Elmer) as fluorescence intensity. • Anti-Rabbit IgG(H+L), F(ab′)2 Fragment (Alexa Fluor 488 Conjugate) (Cell Signaling Technology), fluorescence intensity was measured at excitation: 495 nm, emission: 519 nm. […]
One number for each entry, in nM.

# annotated cases, reported DC50 shown
// assay BRD4 protein (Homo sapiens (Human), UniProt O60885), entry COC(=O)C[C@@H]1N=C(c2ccc(-c3cccc(C(=O)N[C@H](C(=O)N4C[C@H](O)C[C@H]4C(=O)N[C@@H](C)c4ccc(-c5scnc5C)cc4)C(C)(C)C)n3)cc2)c2c(sc(C)c2C)-n2c(C)nnc21 [Example 113] , DC50 value = 0.075

// assay BRD4 protein (Homo sapiens (Human), UniProt O60885), entry COC(=O)C[C@@H]1N=C(c2ccc(-c3ccc(C(=O)N[C@H](C(=O)N4C[C@H](O)C[C@H]4C(=O)NCc4ccc(-c5ocnc5C)cc4)C(C)(C)C)cc3)cc2)c2c(sc(C)c2C)-n2c(C)nnc21 [Example 218] , DC50 value = 0.41

// assay BRD4 protein (Homo sapiens (Human), UniProt O60885), entry COC(=O)C[C@@H]1N=C(c2ccc(-c3c(F)ccc(C(=O)N[C@H](C(=O)N4C[C@H](O)C[C@H]4C(=O)N[C@@H](C)c4ccc(-c5scnc5C)cc4)C(C)(C)C)c3F)cc2)c2c(sc(C)c2C)-n2c(C)nnc21 [Example 174] , DC50 value = 0.31

More entries:
// assay BRD4 protein (Homo sapiens (Human), UniProt O60885), entry Cc1ncsc1-c1ccc([C@H](C)NC(=O)[C@@H]2C[C@@H](O)CN2C(=O)[C@@H](NC(=O)C2(OCCCc3ccc(C4=N[C@@H](C)c5nnc(C)n5-c5sc(C)c(C)c54)cc3)CC2)C(C)(C)C)cc1 [Example 199] , DC50 value = 0.55

###

molecular target: BRD4 protein (Homo sapiens (Human), UniProt O60885); experiment: BRD4 protein degradation inducing action in cancer cells (immunofluorescence, Operetta); assay type: cell-based; conditions: LNCaP cells, 6 hr treatment, fluorescence intensity
Assignment: determine reported DC50 for the given molecules.
One number for each entry, in nM.

Lab book: DC50 of COC(=O)C[C@@H]1N=C(c2ccc(N3CC[C@H](C(=O)Nc4ccc5oc(C(=O)N[C@H](C(=O)N6C[C@H](O)C[C@H]6C(=O)N[C@@H](C)c6ccc(-c7scnc7C)cc6)C(C)(C)C)cc5c4)C3)cc2)c2c(sc(C)c2C)-n2c(C)nnc21 noted as 0.62

Lab book: DC50 of COC(=O)C[C@@H]1N=C(c2ccc(-c3ccc(OCC(=O)N[C@H](C(=O)N4C[C@H](O)C[C@H]4C(=O)N[C@@H](C)c4ccc(-c5scnc5C)cc4)C(C)(C)C)cc3C)cc2)c2c(sc(C)c2C)-n2c(C)nnc21 noted as 0.24

Lab book: DC50 of COC(=O)C[C@@H]1N=C(c2ccc(-c3cccc4c3CN(CC(=O)N[C@H](C(=O)N3C[C@H](O)C[C@H]3C(=O)N[C@@H](C)c3ccc(-c5scnc5C)cc3)C(C)(C)C)CC4)cc2)c2c(sc(C)c2C)-n2c(C)nnc21 noted as 0.28

Lab book: DC50 of COC(=O)C[C@@H]1N=C(c2ccc(-n3ccc(C(=O)N[C@H](C(=O)N4C[C@H](O)C[C@H]4C(=O)N[C@@H](C)c4ccc(-c5scnc5C)cc4)C(C)(C)C)n3)cc2)c2c(sc(C)c2C)-n2c(C)nnc21 noted as 0.37

Lab book: DC50 of COC(=O)C[C@@H]1N=C(c2ccc(N3CCN(c4cccc(C(=O)N[C@H](C(=O)N5C[C@H](O)C[C@H]5C(=O)N[C@@H](C)c5ccc(-c6scnc6C)cc5)C(C)(C)C)n4)CC3)cc2)c2c(sc(C)c2C)-n2c(C)nnc21 noted as 0.23

Lab book: DC50 of COC(=O)C[C@@H]1N=C(c2ccc(-c3ccc(OCC(=O)N[C@H](C(=O)N4C[C@H](O)C[C@H]4C(=O)N[C@@H](C)c4ccc(-c5scnc5C)cc4)C(C)(C)C)cc3OC(F)(F)F)cc2)c2c(sc(C)c2C)-n2c(C)nnc21 noted as 0.75

Hi! Can you tell me DC50 for each of these molecules?
1. COC(=O)C[C@@H]1N=C(c2ccc(N3CC[C@@H](OCC(=O)N[C@H](C(=O)N4C[C@H](O)C[C@H]4C(=O)N[C@@H](C)c4ccc(-c5scnc5C)cc4)C(C)(C)C)C3)cc2)c2c(sc(C)c2C)-n2c(C)nnc21
2. COC(=O)C[C@@H]1N=C(c2ccc(NC(=O)CCc3ccc(OCCOCCOCCOCCOCCOCCOCCOCC(=O)N[C@H](C(=O)N4C[C@H](O)C[C@H]4C(=O)N[C@@H](C)c4ccc(-c5scnc5C)cc4)C(C)(C)C)cc3)cc2)c2c(sc(C)c2C)-n2c(C)nnc21

[0.15, 0.52]
